# Tested target: UniProtKB Q9NSY1
# Sequence (Q9NSY1 whole entry): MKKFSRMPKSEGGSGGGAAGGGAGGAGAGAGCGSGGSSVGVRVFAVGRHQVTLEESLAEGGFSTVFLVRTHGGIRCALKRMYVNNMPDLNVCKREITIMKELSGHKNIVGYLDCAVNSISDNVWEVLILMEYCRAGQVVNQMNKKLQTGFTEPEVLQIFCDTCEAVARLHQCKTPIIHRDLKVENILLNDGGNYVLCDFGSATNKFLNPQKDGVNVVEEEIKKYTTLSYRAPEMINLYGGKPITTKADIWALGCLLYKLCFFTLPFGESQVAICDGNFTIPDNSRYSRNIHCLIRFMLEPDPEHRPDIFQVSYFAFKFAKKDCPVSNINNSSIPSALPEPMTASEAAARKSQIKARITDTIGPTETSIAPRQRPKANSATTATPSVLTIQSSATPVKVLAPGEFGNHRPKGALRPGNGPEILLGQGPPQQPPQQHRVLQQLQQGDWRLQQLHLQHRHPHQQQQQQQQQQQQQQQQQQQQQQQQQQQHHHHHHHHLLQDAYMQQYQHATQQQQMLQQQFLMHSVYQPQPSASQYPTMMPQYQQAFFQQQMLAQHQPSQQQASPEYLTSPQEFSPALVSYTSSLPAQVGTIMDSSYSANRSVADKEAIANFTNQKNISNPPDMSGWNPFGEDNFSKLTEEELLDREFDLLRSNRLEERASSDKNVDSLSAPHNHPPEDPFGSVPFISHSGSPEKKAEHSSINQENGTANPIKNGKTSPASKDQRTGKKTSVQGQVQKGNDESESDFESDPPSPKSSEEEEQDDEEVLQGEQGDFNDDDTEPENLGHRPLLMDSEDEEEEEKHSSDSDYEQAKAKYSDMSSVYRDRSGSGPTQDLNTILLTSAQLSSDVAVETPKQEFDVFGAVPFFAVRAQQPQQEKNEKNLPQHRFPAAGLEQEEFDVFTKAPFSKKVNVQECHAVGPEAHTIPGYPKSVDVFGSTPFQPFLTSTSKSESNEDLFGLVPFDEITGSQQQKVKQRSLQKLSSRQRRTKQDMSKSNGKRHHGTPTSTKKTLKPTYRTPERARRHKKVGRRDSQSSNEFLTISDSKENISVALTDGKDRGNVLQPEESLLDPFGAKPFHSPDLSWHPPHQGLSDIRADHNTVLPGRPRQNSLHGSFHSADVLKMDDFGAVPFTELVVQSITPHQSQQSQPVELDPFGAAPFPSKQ
Calls of active or inactive are those of the source.
Form entry, call: pick from Y for active, N for inactive

Please review the following examples before continuing.
INSERT INTO results (compound, tested_target, assigned_category) VALUES
  ('CN1CC[C@@H](c2c(O)cc(O)c3c(=O)cc(-c4ccccc4Cl)oc23)[C@@H]1CO', 'UniProtKB Q9NSY1', 'N'),
  ('CNC(=O)c1cc(Oc2ccc(NC(=O)Nc3ccc(Cl)c(C(F)(F)F)c3)c(F)c2)ccn1 [REGORAFENIB]', 'UniProtKB Q9NSY1', 'N'),
  ('C1=C/COCc2cc(ccc2OCCN2CCCC2)Nc2nccc(n2)-c2cccc(c2)COC/1 [PACRITINIB]', 'UniProtKB Q9NSY1', 'Y');

### Prompt Returns: the outcome recorded for CO[C@H]1C[C@@H]2CC[C@@H](C)[C@@](O)(O2)C(=O)C(=O)N2CCCC[C@H]2C(=O)O[C@H]([C@H](C)C[C@@H]2CC[C@@H](OCCO)[C@H](OC)C2)CC(=O)[C@H](C)/C=C(\C)[C@@H](O)[C@@H](OC)C(=O)[C@H](C)C[C@H](C)/C=C/C=C/C=C/1C [EVEROLIMUS] in this assay.
### Response N

### Prompt Recorded test call requested for CC[C@@H]1C(=O)N(C)c2cnc(Nc3ccc(C(=O)N[C@H]4CC[C@H](N5CCN(CC6CC6)CC5)CC4)cc3OC)nc2N1C(C)C [VOLASERTIB]
### Response N

### Prompt Please indicate how the test categorized Cn1cc(-c2ccc(F)c(C(F)(F)F)c2)nc1C1CCN(c2ncnc3[nH]ncc23)CC1 [LY-2584702] .
### Response N
